assayed_target: 5HT1A receptors (Rattus norvegicus, UniProt P19327)
Construct: Rat hippocampi were homogenized; from tissue; host or cells: rat hippocampus membranes
Sequence (P19327 whole entry): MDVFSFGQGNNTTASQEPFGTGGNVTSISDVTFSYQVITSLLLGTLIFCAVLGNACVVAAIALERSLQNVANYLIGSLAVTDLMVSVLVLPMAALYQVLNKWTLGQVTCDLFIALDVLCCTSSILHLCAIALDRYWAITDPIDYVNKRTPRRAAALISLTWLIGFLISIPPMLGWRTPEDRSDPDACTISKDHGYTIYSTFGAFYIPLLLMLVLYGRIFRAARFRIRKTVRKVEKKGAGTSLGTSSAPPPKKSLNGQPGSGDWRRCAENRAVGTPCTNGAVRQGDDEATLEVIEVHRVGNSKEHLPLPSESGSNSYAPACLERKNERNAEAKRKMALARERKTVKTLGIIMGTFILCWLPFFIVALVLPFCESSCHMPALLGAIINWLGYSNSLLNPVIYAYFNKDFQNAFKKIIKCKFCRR
experiment_notes: [3H]8-OH-DPAT binding (5HT1A receptors), rat hippocampus membranes
condition_summary: rat hippocampus crude membranes, [3H]8-OH-DPAT 1.0 nM, 25°C 30 min; read-out: Receptor Binding IC50 (nM) 5-HT1a
Sorting guide: entries reporting IC50 beneath 80 nM go in the yes pile, the rest go in the no pile.

[
  {
    "compound": "COc1ccccc1N1CCN(CCCC(=O)Nc2cccc3c(=O)c(C)c(-c4ccccc4)oc23)CC1 [Example 69, methanesulphonate hemihydrate]",
    "category": "no"
  },
  {
    "compound": "COc1ccccc1N1CCN(CCNC(=O)Nc2cccc3c(=O)c(C)c(-c4ccccc4)oc23)CC1.CS(=O)(=O)O [Example 38, methanesulphonate]",
    "category": "no"
  },
  {
    "compound": "COc1ccccc1N1CCN(CCCN(OC2CCCCO2)C(=O)c2cccc3c(=O)c(C)c(-c4ccccc4)oc23)CC1 (centres unmarked) [Example 68, methanesulphonate hemihydrate]",
    "category": "yes"
  },
  {
    "compound": "COc1ccccc1N1CCN(CCCN(C(N)=O)c2cccc3c(=O)c(C)c(-c4ccccc4)oc23)CC1 [Example 50, methanesulphonate hemihydrate]",
    "category": "no"
  },
  {
    "compound": "Cc1ccccc1N1CCN(CC(O)c2cccc3c(=O)c(C)c(-c4ccccc4)oc23)CC1.Cl (centres unmarked) [Example 18, hydrochloride]",
    "category": "no"
  },
  {
    "compound": "COc1ccccc1N1CCN(CCOc2cccc3c(=O)c(C)c(-c4ccccc4)oc23)CC1.Cl.O [Example 39, hydrochloride hydrate]",
    "category": "no"
  },
  {
    "compound": "COc1ccccc1N1CCN(CCOCc2cccc3c(=O)c(C)c(-c4ccccc4)oc23)CC1.Cl.Cl [Example 27, dihydrochloride]",
    "category": "no"
  },
  {
    "compound": "COc1ccccc1N1CCN(CCCNC(=S)c2cccc3c(=O)c(C)c(-c4ccccc4)oc23)CC1 [Example 83, methanesulphonate]",
    "category": "yes"
  },
  {
    "compound": "COc1ccccc1N1CCN(CCCNC(=O)c2c(OC)ccc3c(=O)c(C)c(-c4ccccc4)oc23)CC1 [Example 98]",
    "category": "yes"
  },
  {
    "compound": "COc1ccccc1N1CCN(CCCNC(=O)c2cc([N+](=O)[O-])cc3c(=O)c(C)c(-c4ccccc4)oc23)CC1 [Example 93]",
    "category": "yes"
  },
  {
    "compound": "COc1ccccc1N1CCN(CCN(C)S(=O)(=O)c2cccc3c(=O)c(C)c(-c4ccccc4)oc23)CC1.Cl [Example 49, hydrochloride]",
    "category": "yes"
  },
  {
    "compound": "COc1ccccc1N1CCN(CCCNc2cccc3c(=O)c(C)c(-c4ccccc4)oc23)CC1 [Example 33]",
    "category": "yes"
  },
  {
    "compound": "Cc1c(-c2ccccc2)oc2c(C(=O)OCCN3CCCCC3)cccc2c1=O [Flavoxate, reference compound]",
    "category": "no"
  },
  {
    "compound": "COc1ccccc1N1CCN(CCO/N=C/c2cccc3c(=O)c(C)c(-c4ccccc4)oc23)CC1 [Example 70]",
    "category": "no"
  },
  {
    "compound": "COc1ccccc1N1CCN(CC(O)COc2cccc3c(=O)c(C)c(-c4ccccc4)oc23)CC1.Cl (centres unmarked) [Example 45, hydrochloride]",
    "category": "no"
  },
  {
    "compound": "COc1ccccc1N1CCN(CCCCS(=O)(=O)c2cccc3c(=O)c(C)c(-c4ccccc4)oc23)CC1 [Example 84]",
    "category": "yes"
  },
  {
    "compound": "COc1ccccc1N1CCN(CCC(=O)c2cccc3c(=O)c(C)c(-c4ccccc4)oc23)CC1.Cl [Example 4, hydrochloride]",
    "category": "yes"
  },
  {
    "compound": "Cc1c(-c2ccccc2)oc2c(C(=O)OCCCN3CCN(c4ccccc4)CC3)cccc2c1=O.Cl.Cl [Example 8, dihydrochloride]",
    "category": "no"
  },
  {
    "compound": "COc1ccccc1N1CCN(CCNC(=O)Cc2cccc3c(=O)cc(-c4ccccc4)oc23)CC1 [Example 80, methanesulphonate hydrate]",
    "category": "no"
  },
  {
    "compound": "COc1ccccc1N1CC[N+]([O-])(CCCOc2cccc3c(=O)c(C)c(-c4ccccc4)oc23)CC1 [Example 43]",
    "category": "no"
  }
]
